Source of measurements: ChEMBL document CHEMBL1141414

// each record: one item and its IC50 for Cystathionine beta-lyase MetC (Escherichia coli K-12)
Please provide the amount together with its unit, number first.

Worked examples, 2 molecules total:
SMILES_INPUT	IC50
NNC(=O)CNC(=O)c1cc2ccccc2cc1N	560 µM
NNS(=O)(=O)c1ccc(Cl)s1	6.9 µM

Here's the next entry for you.
Cystathionine beta-lyase MetC (Escherichia coli K-12) / IC50 / NNC(=O)CNC(=O)c1cc([N+](=O)[O-])cc([N+](=O)[O-])c1 : value? 5.9 µM

* * *

Target: Cystathionine beta-lyase MetC (Escherichia coli K-12)
Sequence (P06721 whole entry): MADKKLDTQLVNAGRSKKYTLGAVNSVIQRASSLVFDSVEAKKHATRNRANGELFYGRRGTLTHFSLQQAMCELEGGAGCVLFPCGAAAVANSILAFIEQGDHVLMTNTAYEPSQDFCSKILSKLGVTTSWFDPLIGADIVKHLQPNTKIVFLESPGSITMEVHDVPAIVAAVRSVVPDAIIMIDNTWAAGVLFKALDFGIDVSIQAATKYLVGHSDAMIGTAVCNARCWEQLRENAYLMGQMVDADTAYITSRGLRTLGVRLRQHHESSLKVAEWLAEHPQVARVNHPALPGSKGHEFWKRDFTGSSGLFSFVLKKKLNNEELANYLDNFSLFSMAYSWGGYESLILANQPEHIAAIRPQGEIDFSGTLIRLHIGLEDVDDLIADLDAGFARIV
Test: Inhibition of Escherichia coli CBL
Please provide measured log10 of IC50 for the entries that follow.
log10 IC50, µM

SMILES_INPUT	log10 of IC50
O=C(CSc1nccc(-c2cccs2)n1)c1cc(-c2ccc(Cl)c(Cl)c2)no1	0.43
NNC(=O)CNC(=O)c1ccc([N+](=O)[O-])cc1	1.40
NNC(=O)CNC(=O)c1cccc(C(F)(F)F)c1	1.57
Cc1ccc2nc(-c3ccc(NC(=O)Nc4ccc(Cl)cc4)cc3)sc2c1	1.20
NNC(=O)CNC(=O)c1ccccc1[N+](=O)[O-]	0.65

# batch size: 7; output log10 of IC50 per entry
1. NNS(=O)(=O)c1ccc(-c2ccccn2)s1
2. Cc1ccc2nc(-c3ccc(NC(=O)c4ccc(Cl)cc4)cc3)sc2c1
3. Cc1ccccc1NC(=O)C(C(F)(F)F)C(F)(F)F
4. NNS(=O)(=O)c1ccc(Cl)c(Cl)c1
5. NNS(=O)(=O)c1cccc2c(N)cccc12
6. NNC(=O)CNC(=O)c1cc(N)cc(N)c1
7. Cc1ccc(S(=O)(=O)NN)cc1

0.53
2.30
-0.55
0.26
0.78
1.91
0.34
